# assay.protocol: Stability assessed as degradation half life
# Format: physicochemical
// assign Criterion met if half-life falls strictly below 10 min, else Criterion not met (ties count as Criterion not met)

# compound, assigned.category
data = [
    ("CCC(C)NC(=O)c1nc(-c2cccc(Cl)c2)cnc1N (stereo not drawn)", "Criterion not met"),
    ("CCC(CC)NC(=O)c1nc(-c2ccccc2)cnc1N", "Criterion not met"),
    ("CC(C)(C)NC(=O)c1nc(-c2ccccc2)cnc1N", "Criterion met"),
    ("CCC(C)NC(=O)c1nc(-c2ccccc2C#N)cnc1N (stereo not drawn)", "Criterion not met"),
    ("CCC(CC)NC(=O)c1nc(-c2cccc(C)c2)cnc1N", "Criterion met"),
    ("CCC(CC)NC(=O)c1nc(-c2ccc(F)cc2C#N)cnc1N", "Criterion not met"),
    ("CCC(C)NC(=O)c1nc(-c2ccc(F)cc2)cnc1N (stereo not drawn)", "Criterion not met"),
    ("CCC(C)NC(=O)c1nc(-c2ccc(Cl)cc2)cnc1N (stereo not drawn)", "Criterion not met"),
    ("CCC(CC)NC(=O)c1nc(-c2ccc(F)c(C)c2)cnc1N", "Criterion met"),
    ("Cc1cccc(-c2cnc(N)c(C(=O)NC3CCCC3)n2)c1", "Criterion met"),
    ("Nc1ncc(-c2ccccc2)nc1C(=O)NC1CCCC1", "Criterion met"),
    ("CCC(CC)NC(=O)c1nc(-c2ccc(F)cc2)cnc1N", "Criterion not met"),
]

Taken from ChEMBL document CHEMBL3603826.
